Source of measurements: ChEMBL document CHEMBL4699645

Target: Neuronal acetylcholine receptor; alpha3/beta2 (Rattus norvegicus) (UniProt P04757+P12390)
Experiment: Antagonist activity at rat alpha3beta2 nAChR expressed in Xenopus laevis oocytes assessed as inhibition of Ach-induced response at -70 mV holding potential incubated for 5 mins by voltage-clamp assay relative to LvIA IC50
Format: cell-based
Conditions: Oocyte
Where a SMILES comes first, the peptide text is derived from it. Bridges are numbered along the chain shown (N, C = ends).
READOUT_TYPE: Ratio IC50

Hi team, please reply with Ratio IC50 for each item in this list.
1. CC[C@H](C)[C@@H]1NC(=O)[C@H](CCC(=O)O)NC(=O)[C@@H]2CCCN2C(=O)[C@H](Cc2cnc[nH]2)NC(=O)[C@H](CC(=O)O)NC(=O)[C@H](C(C)C)NC(=O)[C@H](CC(N)=O)NC(=O)[C@@H]2CSSC[C@H](NC(=O)CN)C(=O)N[C@@H](CSSC[C@@H](C(N)=O)NC1=O)C(=O)N[C@@H](C)C(=O)N[C@@H](Cc1cnc[nH]1)C(=O)N1CCC[C@H]1C(=O)N[C@@H](C)C(=O)N2 (H-GCCAHPACNVDHPEIC-NH2; disulfide 2-8, 3-16)
2. CC[C@H](C)[C@@H]1NC(=O)[C@H](CCC(=O)O)NC(=O)[C@@H]2CCCN2C(=O)[C@H](Cc2cnc[nH]2)NC(=O)[C@H](CC(=O)O)NC(=O)[C@H](C(C)C)NC(=O)[C@H](CC(=O)O)NC(=O)[C@@H]2CSSC[C@H](NC(=O)CN)C(=O)N[C@@H](CSSC[C@@H](C(N)=O)NC1=O)C(=O)N[C@@H](CO)C(=O)N[C@@H](Cc1cnc[nH]1)C(=O)N1CCC[C@H]1C(=O)N[C@@H](C)C(=O)N2 (H-GCCSHPACDVDHPEIC-NH2; disulfide 2-8, 3-16)
3. CC[C@H](C)[C@@H]1NC(=O)[C@H](CCC(=O)O)NC(=O)[C@@H]2CCCN2C(=O)[C@H](Cc2cnc[nH]2)NC(=O)[C@H](CC(=O)O)NC(=O)[C@H](C)NC(=O)[C@H](CC(N)=O)NC(=O)[C@@H]2CSSC[C@H](NC(=O)CN)C(=O)N[C@@H](CSSC[C@@H](C(N)=O)NC1=O)C(=O)N[C@@H](CO)C(=O)N[C@@H](Cc1cnc[nH]1)C(=O)N1CCC[C@H]1C(=O)N[C@@H](C)C(=O)N2 (H-GCCSHPACNADHPEIC-NH2; disulfide 2-8, 3-16)
4. CC(C)[C@@H]1NC(=O)[C@H](CC(N)=O)NC(=O)[C@@H]2CSSC[C@H](NC(=O)CN)C(=O)N[C@@H](CSSC[C@@H](C(N)=O)NC(=O)[C@H](C)NC(=O)[C@H](CCC(=O)O)NC(=O)[C@@H]3CCCN3C(=O)[C@H](Cc3cnc[nH]3)NC(=O)[C@H](CC(=O)O)NC1=O)C(=O)N[C@@H](CO)C(=O)N[C@@H](Cc1cnc[nH]1)C(=O)N1CCC[C@H]1C(=O)N[C@@H](C)C(=O)N2 (H-GCCSHPACNVDHPEAC-NH2; disulfide 2-8, 3-16)

3.5
0.24
4.5
69

----------
Target: Neuronal acetylcholine receptor; alpha3/beta2 (Rattus norvegicus) (UniProt P04757+P12390)
Test: Antagonist activity at rat alpha3beta2 nAChR expressed in Xenopus laevis oocytes assessed as inhibition of Ach-induced response at -70 mV holding potential incubated for 5 mins by voltage-clamp assay relative to LvIA IC50
Assay type: cell-based
Conditions: Oocyte
Where a SMILES comes first, the peptide text is derived from it. Bridges are numbered along the chain shown (N, C = ends).
Field: Ratio IC50. Provide a value for each of the compounds that follow.
One number for each entry.

[[record]]
compound = "CC[C@H](C)[C@@H]1NC(=O)[C@H](CCC(=O)O)NC(=O)[C@@H]2CCCN2C(=O)[C@H](Cc2cnc[nH]2)NC(=O)[C@H](CC(=O)O)NC(=O)[C@H](C(C)C)NC(=O)[C@H]([C@@H](C)CC)NC(=O)[C@@H]2CSSC[C@H](NC(=O)CN)C(=O)N[C@@H](CSSC[C@@H](C(N)=O)NC1=O)C(=O)N[C@@H](CO)C(=O)N[C@@H](Cc1cnc[nH]1)C(=O)N1CCC[C@H]1C(=O)N[C@@H](C)C(=O)N2 (H-GCCSHPACIVDHPEIC-NH2; disulfide 2-8, 3-16)"
measurement_target = "Neuronal acetylcholine receptor; alpha3/beta2 (Rattus norvegicus) (UniProt P04757+P12390)"
value_observed = 0.21


Return reported Ratio IC50; argument: CC[C@H](C)[C@@H]1NC(=O)[C@H](CCC(=O)O)NC(=O)[C@@H]2CCCN2C(=O)[C@H](Cc2cnc[nH]2)NC(=O)[C@H](CC(=O)O)NC(=O)[C@H](C(C)C)NC(=O)[C@H](C)NC(=O)[C@@H]2CSSC[C@H](NC(=O)CN)C(=O)N[C@@H](CSSC[C@@H](C(N)=O)NC1=O)C(=O)N[C@@H](CO)C(=O)N[C@@H](Cc1cnc[nH]1)C(=O)N1CCC[C@H]1C(=O)N[C@@H](C)C(=O)N2 (H-GCCSHPACAVDHPEIC-NH2; disulfide 2-8, 3-16) 0.13
